Reference for the values: patent US12559750B2

# IC50 per entry
Biological target: AMPA-R
Assay: [3H]AMPA radioligand binding assay on rat brain synaptic membranes;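 further: competition binding in which test compounds at rising concentrations displace [3H]AMPA from AMPA-R on rat brain synaptic membranes, with reduced bound radioligand as read-out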
Conditions: Experiment #3
Write the number in µM without appending the unit.

Worked cases, IC50 given:
| Residue String | Measurement Target | IC50, µM |
| --- | --- | --- |
| ASGSCSASCSUSUSUSGS [RG-NG-1001] | AMPA-R | 0.1 |
| ASGSCMAFCFUFUMUSGS [RGLS4326, reference compound] | AMPA-R | 0.78 |
| ASGSCMAFCFUFUMUSGE [RG-NG-1025] | AMPA-R | 1.85 |

Consider the record given below.
What does the data say about its IC50? Entry: AFGSCMAFCFUFUMUSGE [RG-NG-1023]
3.12
